# assayed target: human cytosolic Serine Hydroxymethyl transferase 1 (SHMT1) (Homo sapiens (Human), UniProt P34896)
# Sequence (P34896 whole entry): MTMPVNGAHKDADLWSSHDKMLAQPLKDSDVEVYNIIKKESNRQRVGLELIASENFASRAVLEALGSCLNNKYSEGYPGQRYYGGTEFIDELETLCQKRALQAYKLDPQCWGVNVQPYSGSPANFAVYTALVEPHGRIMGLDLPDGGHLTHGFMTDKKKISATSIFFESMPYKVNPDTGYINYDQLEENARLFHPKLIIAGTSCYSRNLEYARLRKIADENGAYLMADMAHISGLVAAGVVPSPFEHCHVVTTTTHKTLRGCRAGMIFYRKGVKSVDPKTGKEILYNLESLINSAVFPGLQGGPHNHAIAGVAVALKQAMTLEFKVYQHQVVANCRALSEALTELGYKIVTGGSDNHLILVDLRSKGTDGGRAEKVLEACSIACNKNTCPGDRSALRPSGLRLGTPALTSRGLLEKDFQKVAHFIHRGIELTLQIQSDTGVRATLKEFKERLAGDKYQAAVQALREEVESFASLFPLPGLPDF
# experiment description: SHMT1 activity inhibition assay (serine production from glycine and CH2-THF, mass spectroscopy)
# study conditions: 60 minutes at room temperature
pIC50: −log10 of the molar value.
readout label: pIC50

Take a look at these entries with their results.
molecule	pIC50
CCc1cccc(-c2cc(Cl)ccc2-c2nc(CC(=O)NC(C)(C)C(=O)O)cs2)c1	5.00 to 6.00
CC[C@@H](C)[C@H](NC(=O)Cc1csc(-c2cccc(Cl)c2)n1)C(=O)O	4.00 to 5.00
COc1ccccc1-c1nc(CC(=O)NC(C)C(=O)O)cs1 (centres unmarked)	3.30 to 4.00

Prompt: State its pIC50 for this molecule: O=C(O)CNC(=O)Cc1csc(-c2ccc(Cl)c3ccccc23)n1
Completion: 4.00 to 5.00

Prompt: Indicate its recorded pIC50; the molecule in question is O=C(O)CNC(=O)Cc1csc(-c2ccc(Cl)cc2CCO)n1
Completion: 3.30 to 4.00

###

# assayed target: UniProt P34896
# experiment description: SHMT1 activity inhibition assay (serine production from glycine and CH2-THF, mass spectroscopy)
# study conditions: 60 minutes at room temperature
pIC50: −log10 of the molar value.
readout label: pIC50

Check out these entries, answers already filled in.
molecule	pIC50
CC(C)c1ccc(-c2nc(CC(=O)N[C@@H](Cc3c[nH]c4ccccc34)C(=O)O)cs2)cc1	3.30 to 4.00
CC(C(=O)NCC(=O)O)c1csc(-c2ccc(Cl)cc2Cl)n1 (stereo not shown)	4.00 to 5.00

Prompt: Provide UniProt P34896 pIC50 reading for CC(C)(NC(=O)Cc1csc(-c2ccc(Cl)cc2-c2cccc3c2CCC3)n1)C(=O)O .
Completion: 5.00 to 6.00

Prompt: # assay system UniProt P34896: give pIC50 of CC(C)c1ccc(-c2nc(CC(=O)N[C@@H](C(=O)O)c3ccccc3)cs2)cc1
Completion: 3.30 to 4.00

###

# assayed target: Human mitochondrial SHMT2 (Homo sapiens (Human))
# experiment description: SHMT2 activity inhibition assay (serine production from glycine and CH2-THF, mass spectroscopy)
# study conditions: 60 minutes at room temperature
# Description: Full length human cytosolic Serine Hydroxymethyl transferase 1 (SHMT1, residues 1-483 in Uniport ID P34896) was expressed as an N-terminal His6 tagged protein and purified in E. coli using nickel capture followed by size-exclusion chromatography. Human mitochondrial SHMT2 (residues 30-504 in Uniprot ID P34897) with mitochondrial leader sequence deleted was expressed as an N-terminal His6 tagged protein and purified in E. coli using nickel capture followed by size-exclusion chromatography. […]
readout label: IC50

Below, 7 compounds whose answers are already recorded.
compound	observed
CC(C)[C@H](NC(=O)Cc1csc(-c2ccc(Cl)cc2Cl)n1)C(=O)O [Compound I-58]	100 to 500 µM
O=C(Cc1csc(-c2ccc(Cl)cc2)n1)N[C@@H](C(=O)O)c1ccccc1 [Compound I-63]	100 to 500 µM
O=C(Cc1csc(-c2ccc(Cl)cc2Cl)n1)N[C@@H](Cc1ccccc1)C(=O)O [Compound I-42]	100 to 500 µM
CC(C)c1cc(Cl)ccc1-c1nc(CC(=O)NC(C)(C)C(=O)O)cs1 [Compound I-25]	< 1 µM
CC[C@@H](C)[C@H](NC(=O)Cc1csc(-c2cccc(Cl)c2)n1)C(=O)O [Compound I-32]	10 to 100 µM
NC(=O)Cc1cc(Cl)ccc1-c1nc(CC(=O)NCC(=O)O)cs1 [Compound I-65]	100 to 500 µM
CC(C)(NC(=O)Cc1csc(-c2ccc(Cl)cc2-c2ccccc2)n1)C(=O)O [Compound I-5]	< 1 µM

Could you now consider this next compound?
Prompt: Fill in reported IC50 for this entry: O=C(Cc1csc(-c2ccc(Cl)cc2Cl)n1)N[C@@H](C(=O)O)c1ccccc1 [Compound I-55]
Completion: 100 to 500 µM

###

# assayed target: UniProt:P34897
# experiment description: SHMT2 activity inhibition assay (serine production from glycine and CH2-THF, mass spectroscopy)
# study conditions: 60 minutes at room temperature
Below is a list of entries, each paired with its recorded IC50 value.

compound	IC50
CC(C)(NC(=O)Cc1cccc(-c2ccc(Cl)cc2)c1)C(=O)O [Compound I-30]	1000 to 10000 nM
O=C(O)CNC(=O)C(c1ccccc1)c1csc(-c2ccc(Cl)cc2Cl)n1 (centres unmarked) [Compound I-66]	> 500000 nM
CC(C)(NC(=O)Cc1csc(-c2ccc(Cl)cc2-c2cccc3c2COC3)n1)C(=O)O [Compound I-7]	< 1000 nM
CC(C)(NC(=O)Cc1csc(-c2ccc(Cl)cc2CC2CCC2)n1)C(=O)O [Compound I-10]	< 1000 nM

API: the following record is the query input.
Prompt: Give recorded IC50. CCc1cc(Cl)ccc1-c1nc(CC(=O)NC(C)(C)C(=O)O)cs1 [Compound I-27]
Completion: 1000 to 10000 nM

###

Listed next: entries and their corresponding IC50.
# assayed target: Human mitochondrial SHMT2 (Homo sapiens (Human), UniProt P34897)
# Sequence (P34897 30-504): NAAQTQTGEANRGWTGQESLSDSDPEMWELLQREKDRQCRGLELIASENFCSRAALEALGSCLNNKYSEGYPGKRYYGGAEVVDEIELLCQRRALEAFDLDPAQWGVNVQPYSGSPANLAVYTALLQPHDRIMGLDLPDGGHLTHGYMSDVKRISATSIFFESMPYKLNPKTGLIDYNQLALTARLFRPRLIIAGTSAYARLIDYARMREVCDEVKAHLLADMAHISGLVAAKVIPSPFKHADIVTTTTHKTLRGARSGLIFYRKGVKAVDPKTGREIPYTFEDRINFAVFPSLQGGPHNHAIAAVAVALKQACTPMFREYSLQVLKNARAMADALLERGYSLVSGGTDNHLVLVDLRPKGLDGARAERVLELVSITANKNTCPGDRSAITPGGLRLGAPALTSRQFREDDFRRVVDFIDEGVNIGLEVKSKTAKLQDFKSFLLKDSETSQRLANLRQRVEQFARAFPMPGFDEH
# experiment description: SHMT2 activity inhibition assay (serine production from glycine and CH2-THF, mass spectroscopy)
# study conditions: 60 minutes at room temperature
# From the text: Full length human cytosolic Serine Hydroxymethyl transferase 1 (SHMT1, residues 1-483 in Uniport ID P34896) was expressed as an N-terminal His6 tagged protein and purified in E. coli using nickel capture followed by size-exclusion chromatography. Human mitochondrial SHMT2 (residues 30-504 in Uniprot ID P34897) with mitochondrial leader sequence deleted was expressed as an N-terminal His6 tagged protein and purified in E. coli using nickel capture followed by size-exclusion chromatography. […]

compound	assayed target	IC50
CC(C)(NC(=O)Cc1ccnc(-c2ccc(Cl)cc2-c2ccccc2)n1)C(=O)O [Compound I-29]	Human mitochondrial SHMT2 (Homo sapiens (Human), UniProt P34897)	1 to 10 µM
O=C(Cc1csc(-c2ccc(Cl)cc2Cl)n1)NC1(C(=O)O)CC1 [Compound I-45]	Human mitochondrial SHMT2 (Homo sapiens (Human), UniProt P34897)	10 to 100 µM
CC(NC(=O)Cc1csc(-c2cccc(Br)c2)n1)C(=O)O (centres unmarked) [Compound I-43]	Human mitochondrial SHMT2 (Homo sapiens (Human), UniProt P34897)	10 to 100 µM
O=C(Cc1csc(-c2cccc(Br)c2)n1)NC(Cc1ccccc1)C(=O)O (centres unmarked) [Compound I-60]	Human mitochondrial SHMT2 (Homo sapiens (Human), UniProt P34897)	100 to 500 µM

Prompt: Identify measured IC50 corresponding to CC(C)C[C@H](NC(=O)Cc1csc(-c2ccc(Cl)cc2Cl)n1)C(=O)O [Compound I-47]
Completion: 100 to 500 µM

Prompt: Return reported IC50. Input compound: CSCC[C@H](NC(=O)Cc1csc(-c2ccc(Cl)cc2Cl)n1)C(=O)O [Compound I-48]
Completion: 100 to 500 µM

Prompt: Read the entry COc1cc(-c2nc(CC(=O)NC(C)(C)C(=O)O)cs2)c(-c2ccccc2)cc1Cl [Compound I-8] and write its reported IC50.
Completion: < 1 µM

Prompt: Provide measured IC50 value, entry: NC(=O)NCCC[C@@H](NC(=O)Cc1csc(-c2ccc(F)cc2)n1)C(=O)O [Compound I-44]
Completion: 100 to 500 µM

###

Let's look at some molecules and their measured pIC50.
# assayed target: human cytosolic Serine Hydroxymethyl transferase 1 (SHMT1) (Homo sapiens (Human), UniProt P34896)
# experiment description: SHMT1 activity inhibition assay (serine production from glycine and CH2-THF, mass spectroscopy)
# study conditions: 60 minutes at room temperature
pIC50: −log10 of the molar value.

smiles representation	pIC50
COc1cc(-c2nc(CC(=O)NC(C)(C)C(=O)O)cs2)c(-c2ccccc2)cc1Cl	> 6.00
O=C(Cc1csc(-c2ccc(Cl)cc2Cl)n1)NC1(C(=O)O)CCC1	4.00 to 5.00
CC(C)(NC(=O)Cc1ccnc(-c2ccc(Cl)cc2-c2ccccc2)n1)C(=O)O	4.00 to 5.00

Prompt: # return recorded pIC50 for input O=C(Cc1csc(-c2ccc(Cl)cc2Cl)n1)NC1(C(=O)O)CC1
Completion: 4.00 to 5.00

Prompt: Given Cc1cccc(-c2cc(Cl)ccc2-c2nc(CC(=O)NC(C)(C)C(=O)O)cs2)c1C , respond with its pIC50.
Completion: > 6.00

Prompt: Read the entry Cc1sc(-c2ccc(Cl)cc2Cl)nc1CC(=O)NC(C)(C)C(=O)O and write its reported pIC50.
Completion: 4.00 to 5.00

Prompt: Determine its reported pIC50: COc1ccccc1-c1nc(CC(=O)N[C@@H](C)C(=O)O)cs1
Completion: 3.30 to 4.00

Prompt: Provide one value: measured pIC50 of CC(C)(NC(=O)Cc1csc(-c2ccc(Cl)cc2-c2ccccc2)n1)C(=O)O
Completion: > 6.00

###

# assayed target: Human mitochondrial SHMT2 (Homo sapiens (Human))
# experiment description: SHMT2 activity inhibition assay (serine production from glycine and CH2-THF, mass spectroscopy)
# study conditions: 60 minutes at room temperature
readout label: IC50

For orientation, consider the following solved cases.
compound	readout label	observed
CC(C)c1ccc(-c2nc(CC(=O)N[C@@H](Cc3ccccc3)C(=O)O)cs2)cc1	IC50	100 to 500 µM
O=C(O)CNC(=O)Cc1csc(-c2cccc(Cl)c2Cl)n1	IC50	100 to 500 µM
CC(=O)N1CCC(c2cc(Cl)ccc2-c2nc(CC(=O)NC(C)(C)C(=O)O)cs2)CC1	IC50	< 1 µM
O=C(Cc1csc(-c2ccccc2Cl)n1)N[C@@H](Cc1ccccc1)C(=O)O	IC50	100 to 500 µM
CCc1cccc(-c2cc(Cl)ccc2-c2nc(CC(=O)NC(C)(C)C(=O)O)cs2)c1	IC50	< 1 µM
COc1ccccc1-c1nc(CC(=O)NC(C)C(=O)O)cs1 (stereo not drawn)	IC50	10 to 100 µM
O=C(Cc1csc(-c2cccc(Br)c2)n1)N[C@@H](Cc1ccccc1)C(=O)O	IC50	100 to 500 µM
O=C(Cc1csc(-c2ccc3c(c2)OCCO3)n1)NC1(C(=O)O)CCC1	IC50	1 to 10 µM

Prompt: For Human mitochondrial SHMT2 (Homo sapiens (Human)), give IC50 of the listed compound: CC(C)(C(=O)NCC(=O)O)c1csc(-c2ccc(Cl)cc2Cl)n1
Completion: 100 to 500 µM

Prompt: Answer with IC50 of CC(C)c1ccc(-c2nc(CC(=O)N[C@@H](C(=O)O)c3ccccc3)cs2)cc1 measured for Human mitochondrial SHMT2 (Homo sapiens (Human)).
Completion: 100 to 500 µM

Prompt: With Human mitochondrial SHMT2 (Homo sapiens (Human)) as the test system, provide measured IC50 for this compound: CC(C)(NC(=O)Cc1cccc(-c2ccc(Cl)cc2-c2cccc(C(N)=O)c2)c1)C(=O)O
Completion: < 1 µM

Prompt: Quote Human mitochondrial SHMT2 (Homo sapiens (Human)) IC50 for entry COc1ccccc1-c1nc(CC(=O)N[C@@H](C)C(=O)O)cs1 .
Completion: 10 to 100 µM

Prompt: Check Human mitochondrial SHMT2 (Homo sapiens (Human)) data and give IC50 for C[C@H](NC(=O)Cc1csc(-c2ccc(Cl)cc2Cl)n1)C(=O)O .
Completion: 10 to 100 µM
